# STUDY TARGET: Alpha-1A adrenergic receptor (Homo sapiens, UniProt P35348); note: assay procedure not described here
# Sequence (P35348 whole entry): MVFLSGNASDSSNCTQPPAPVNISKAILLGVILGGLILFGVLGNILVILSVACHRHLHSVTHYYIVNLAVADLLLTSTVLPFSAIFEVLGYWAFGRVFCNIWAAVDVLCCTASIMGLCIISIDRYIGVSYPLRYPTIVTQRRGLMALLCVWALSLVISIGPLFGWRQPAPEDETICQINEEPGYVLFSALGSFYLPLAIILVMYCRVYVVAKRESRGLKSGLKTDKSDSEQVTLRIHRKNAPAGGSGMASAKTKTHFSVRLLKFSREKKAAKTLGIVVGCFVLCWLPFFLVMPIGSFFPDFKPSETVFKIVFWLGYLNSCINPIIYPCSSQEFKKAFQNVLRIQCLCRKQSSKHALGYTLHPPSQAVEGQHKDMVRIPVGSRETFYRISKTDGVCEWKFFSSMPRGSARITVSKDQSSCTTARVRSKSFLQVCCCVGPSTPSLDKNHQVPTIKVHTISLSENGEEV
# Type: functional, cell-based
ENDPOINT NAME: AC50

COMPOUND	ENDPOINT NAME	OBSERVED RESULT
COc1ccc2c3c1O[C@H]1[C@@H](O)CC[C@H]4[C@@H](C2)N(C)CC[C@@]341 [DIHYDROCODEINE]	AC50	> 30 µM

For the 3 compounds below, give their AC50 values.
1. Cc1nnc2n1-c1ccc(Cl)cc1C(c1ccccc1Cl)=NC2
2. CC(C)=CCC/C(C)=C/C=C/C(C)=C/C=C/C(C)=C/C=C/C=C(C)/C=C/C=C(C)/C=C/C=C(\C)CCC=C(C)C
3. CCC(C)n1ncn(-c2ccc(N3CCN(c4ccc(OCC5COC(Cn6cncn6)(c6ccc(Cl)cc6Cl)O5)cc4)CC3)cc2)c1=O (centres undefined)

## Output
1. 14 µM
2. > 30 µM
3. > 30 µM
